Tested on: A549
Method: MTT cell viability assay, A549
Assay type: cell-based, human
Setup Conditions: Homo sapiens, A549, 48 h, mean ± SE
pIC50: −log10 of the molar value.
Documented pIC50 across a set of molecules

- Record Smiles: "Cc1ccc(/C=C/C(=O)c2ccc(O)c(C(N)=O)c2)cc1"
  Target Or Test System: "A549"
  pIC50: 4.19
- Record Smiles: "NC(=O)c1cc(C(=O)/C=C/c2ccc(Br)cc2)ccc1O"
  Target Or Test System: "A549"
  pIC50: 4.32
- Record Smiles: "NC(=O)c1cc(C(=O)/C=C/c2cccc(Br)c2)ccc1O"
  Target Or Test System: "A549"
  pIC50: 4.22
- Record Smiles: "COc1ccccc1/C=C/C(=O)c1ccc(O)c(C(N)=O)c1"
  Target Or Test System: "A549"
  pIC50: 4.24
- Record Smiles: "NC(=O)c1cc(C(=O)/C=C/c2ccccc2)ccc1O"
  Target Or Test System: "A549"
  pIC50: 4.24
- Record Smiles: "Cc1cccc(/C=C/C(=O)c2ccc(O)c(C(N)=O)c2)c1"
  Target Or Test System: "A549"
  pIC50: 4.39
- Record Smiles: "COc1cc(/C=C/C(=O)c2ccc(O)c(C(N)=O)c2)cc(OC)c1OC"
  Target Or Test System: "A549"
  pIC50: 4.44
- Record Smiles: "COc1ccc(/C=C/C(=O)c2ccc(O)c(C(N)=O)c2)cc1"
  Target Or Test System: "A549"
  pIC50: 4.45
- Record Smiles: "NC(=O)c1cc(C(=O)/C=C/c2cccc(Cl)c2)ccc1O"
  Target Or Test System: "A549"
  pIC50: 4.08
- Record Smiles: "COc1cccc(/C=C/C(=O)c2ccc(O)c(C(N)=O)c2)c1"
  Target Or Test System: "A549"
  pIC50: 4.34

###

Tested on: HepG2
Method: MTT cell viability assay, HepG2
Assay type: cell-based, human
Setup Conditions: Homo sapiens, HepG2, 48 h, mean ± SE
Parameter Measured: IC50 (µM)

- Record Smiles: "NC(=O)c1cc(C(=O)/C=C/c2cccc(Cl)c2)ccc1O"
  Measured Value: 77
- Record Smiles: "Cc1ccccc1/C=C/C(=O)c1ccc(O)c(C(N)=O)c1"
  Measured Value: 75.4
- Record Smiles: "Cc1cccc(/C=C/C(=O)c2ccc(O)c(C(N)=O)c2)c1"
  Measured Value: 55.6
- Record Smiles: "NC(=O)c1cc(C(=O)/C=C/c2ccc(Br)cc2)ccc1O"
  Measured Value: 46.4
- Record Smiles: "NC(=O)c1cc(C(=O)/C=C/c2ccc(F)cc2)ccc1O"
  Measured Value: 135
- Record Smiles: "COc1cc(/C=C/C(=O)c2ccc(O)c(C(N)=O)c2)cc(OC)c1OC"
  Measured Value: 38.3
- Record Smiles: "COc1ccc(/C=C/C(=O)c2ccc(O)c(C(N)=O)c2)cc1"
  Measured Value: 44.7
- Record Smiles: "COc1ccc(/C=C/C(=O)c2ccc(O)c(C(N)=O)c2)cc1OC"
  Measured Value: 50.3

###

Tested on: HepG2
Method: MTT cell viability assay, HepG2
Format: cell-based, human
Setup Conditions: Homo sapiens, HepG2, 48 h, mean ± SE
Note to self: IC50 under 70 µM means label 1, ties and anything higher get label 0.

- Record Smiles: "COc1ccccc1/C=C/C(=O)c1ccc(O)c(C(N)=O)c1"
  Category: "label 0"
- Record Smiles: "COc1ccc(/C=C/C(=O)c2ccc(O)c(C(N)=O)c2)c(OC)c1"
  Category: "label 1"
- Record Smiles: "Cc1ccc(/C=C/C(=O)c2ccc(O)c(C(N)=O)c2)cc1"
  Category: "label 1"

The measured values listed here are drawn from paper PMC6874057.
